- System: HeLa
- ASSAY: Cytotoxicity against human HeLa Ohio-1 cells
Please go through the items and note down their CC50.
Numbers only, in µM.

Examples from the recorded data:
COc1cc2c(cc1OC)-c1c(OC)c(OC)c(CNC(=O)/C=C/c3cc(OC)c(O)c(OC)c3)c3c1C(C2)N(C)CC3 (configuration not stated); 125
COc1cc2c(cc1OC)-c1c(OC)c(OC)cc3ccnc(c13)C2=O; 51
COc1cc2c(cc1OC)-c1c(OC)c(OC)cc3c1[C@H](C2)N(C)CC3; 182
COc1cc(/C=C/C(=O)NCc2c3c4c(c(OC)c2OC)-c2cc(OC)c(OC)cc2CC4N(C)CC3)ccc1O (configuration not stated); 113

Quick one: give me CC50 for each item below, same order please.
1. COc1cc2c(cc1OC)-c1c(OC)c(OC)c(CNC(=O)/C=C/c3ccc(O)cc3)c3c1C(C2)N(C)CC3 (configuration not stated)
2. Cc1cc(CCCCCCCOc2ccc(C3=NCCO3)cc2)on1
3. COc1cc2c(cc1OC)-c1c(OC)c(OC)c(CNC(=O)/C=C/c3ccccc3O)c3c1C(C2)N(C)CC3 (configuration not stated)

1: 143; 2: 21; 3: 155

----------
- ASSAY: Cytotoxicity against human HeLa Ohio-1 cells
- Type: cell-based
pIC50: −log10 of the molar value.
Please use YES whenever pIC50 is not below 5, and NO whenever it is.

COc1cc2c(cc1OC)-c1c(OC)c(OC)cc3c1[C@H](C2)N(C)CC3; NO
Cc1cc(CCCCCCCOc2ccc(C3=NCCO3)cc2)on1; YES
COc1cc2c(cc1OC)-c1c(OC)c(OC)c(CNC(=O)/C=C/c3ccccc3O)c3c1C(C2)N(C)CC3 (configuration not stated); NO
COc1cc2c(cc1OC)-c1c(OC)c(OC)cc3ccnc(c13)C2=O; YES

Hello, I need to know if COc1cc2c(cc1OC)-c1c(OC)c(OC)c(CNC(=O)/C=C/c3cc(OC)c(O)c(OC)c3)c3c1C(C2)N(C)CC3 (configuration not stated) has measured pIC50 not below 5. Thanks!
NO

----------
- ASSAY: Cytotoxicity against human FL cells after 24 hrs
- Assay type: cell-based
ATTRIBUTE_MEASURED: CC50 at 24 h (µM)
Answers are plain numbers, in µM.

Examples from the recorded data:
COc1cc2c(cc1OC)-c1c(OC)c(OC)c(CNC(=O)/C=C/c3ccccc3O)c3c1C(C2)N(C)CC3 (configuration not stated); 152
Cc1cc(CCCCCCCOc2ccc(C3=NCCO3)cc2)on1 [DISOXARIL]; 25
COc1cc(/C=C/C(=O)NCc2c3c4c(c(OC)c2OC)-c2cc(OC)c(OC)cc2CC4N(C)CC3)ccc1O (configuration not stated); 105
COc1cc2c(cc1OC)-c1c(OC)c(OC)cc3ccnc(c13)C2=O [OXOGLAUCINE]; 52
COc1cc2c(cc1OC)-c1c(OC)c(OC)c(CNC(=O)/C=C/c3ccc(O)cc3)c3c1C(C2)N(C)CC3 (configuration not stated); 160
COc1cc2c(cc1OC)-c1c(OC)c(OC)cc3c1[C@H](C2)N(C)CC3 [GLAUCINE]; 115

Below: the item to evaluate.
Entry COc1cc2c(cc1OC)-c1c(OC)c(OC)c(CNC(=O)/C=C/c3cc(OC)c(O)c(OC)c3)c3c1C(C2)N(C)CC3 (configuration not stated) has what CC50 at 24 h?
112

----------
Please go through the items and note down their IC50.
- Tested on: Coxsackievirus B1
- ASSAY: Antiviral activity against Coxsackievirus B1 in human FL cells
- Format: functional, organism-based
- PARTICULARS: Enterovirus B
Give bare numbers, in nM.

Quick one: give me IC50 for each item below, same order please.
1. Cc1cc(CCCCCCCOc2ccc(C3=NCCO3)cc2)on1 [DISOXARIL]
2. COc1cc2c(cc1OC)-c1c(OC)c(OC)cc3c1[C@H](C2)N(C)CC3 [GLAUCINE]
3. COc1cc2c(cc1OC)-c1c(OC)c(OC)cc3ccnc(c13)C2=O [OXOGLAUCINE]

1: 2000; 2: 21000; 3: 2500
